GI50 for assorted compounds
- System: SK-MEL-2
- protocol description: NCI tumour cell line growth inhibition, 48 h
The source made the active and inactive calls. No stated cut-off is given here; in the data, active = GI50 up to about 1.1 µM and inactive = higher.

The examples below pair each entry with its known result.
compound: C=CCc1cc(C(Cc2ccccc2)NC(C)C)cc(OCc2ccccc2)c1OCc1ccccc1 (stereo not given)
GI50: 18.6 µM (inactive)

compound: C/C(=N/NC(N)=S)C(CN1CCOCC1)C(C1=C(O)c2ccccc2OC1)c1ccccc1 (stereo not given)
GI50: > 100 µM (inactive)

compound: Cc1cn(CCCC2=NCCCN2)c(=O)[nH]c1=O
GI50: > 100 µM (inactive)

Quick one: GI50 for N=C(/C=C/c1ccc(-c2cn3cc(/C=C/C(=N)N4CCCC4)ccc3n2)cc1)N1CCCC1 ?
> 100 µM (inactive)

Quick one: GI50 for Cc1cc(C)nc(NS(=O)(=O)c2ccc(NC(=O)c3cccc4c(Nc5ccc(S(N)(=O)=O)cc5)c5ccccc5nc34)cc2)n1 ?
10.2 µM (inactive)

Quick one: GI50 for N=C(N)NS(=O)(=O)c1ccc(NNc2c3ccccc3nc3c(C(=O)Nc4ccc(S(N)(=O)=O)cc4)cccc23)cc1 ?
9.02 µM (inactive)

Quick one: GI50 for CC(=O)OCC(=O)[C@@]1(O)CC[C@H]2[C@@H]3CCC4=CC(=O)[C@H](C)C[C@]4(C)[C@H]3[C@@H](O)C[C@@]21C ?
> 100 µM (inactive)

Quick one: GI50 for COC(=O)c1ccc(/N=N/N(C)COc2ccc(Br)cc2)cc1 ?
> 100 µM (inactive)

Quick one: GI50 for COC(=O)C1(C(=O)OC)N=C(C)OC1c1ccccn1 (stereo not given) ?
> 100 µM (inactive)

Quick one: GI50 for CC1=C/C(O)CC(=O)Cc2nc(co2)C(=O)N2CCC=C2C(=O)OC(C(C)C)C(C)/C=C\C(=O)NC/C=C\1 (stereo not given) ?
17.4 µM (inactive)

Quick one: GI50 for Cc1cc(S(=O)(=O)Nc2nc(N)nc(N(C)C)n2)c(SCC(=O)O)cc1Cl ?
> 10 µM (inactive)

Quick one: GI50 for O/N=N/c1cnccn1 ?
> 1200 µM (inactive)

Quick one: GI50 for CCOc1ccc(C2=C(Cl)c3cc(OC)c(OC)cc3C2Cl)cc1 (stereo not given) ?
23.1 µM (inactive)

Quick one: GI50 for Nc1nc(O)c2ncn([C@H]3CC[C@@H](CO)O3)c2n1 ?
> 100 µM (inactive)

Quick one: GI50 for NC(=O)NC(=O)c1ccc(NC(=O)CBr)cc1 ?
1.99 µM (inactive)

Quick one: GI50 for COc1cc2cc(C(=O)N3CC(COS(C)(=O)=O)c4ccc(NC(=O)OCc5ccccc5)cc43)[nH]c2c(OC)c1OC (stereo not given) ?
67.1 µM (inactive)
